compounds and their reported inhibition at 1 µM
TARGET: recombinant human PAI-1 (Homo sapiens, UniProt P05121)
Sequence (P05121 24-402): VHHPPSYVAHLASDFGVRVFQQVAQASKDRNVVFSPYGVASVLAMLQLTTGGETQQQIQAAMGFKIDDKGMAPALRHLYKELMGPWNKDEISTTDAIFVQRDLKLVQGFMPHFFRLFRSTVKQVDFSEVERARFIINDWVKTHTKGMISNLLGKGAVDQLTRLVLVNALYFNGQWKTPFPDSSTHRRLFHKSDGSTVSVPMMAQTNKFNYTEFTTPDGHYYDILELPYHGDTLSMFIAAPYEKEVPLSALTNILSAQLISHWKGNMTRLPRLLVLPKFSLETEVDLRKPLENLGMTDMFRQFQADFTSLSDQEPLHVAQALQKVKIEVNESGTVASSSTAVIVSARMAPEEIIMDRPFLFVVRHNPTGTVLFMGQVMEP
TEST: Test Example 2: Human PAI-1 Inhibitory Activity (pH 7.4 HEPES buffer, 10 minutes incubation with two-chain tPA)
Format: biochemical
Design: purchased Molecular Innovations, Inc
CONDITIONS_USED: read-out: Inhibition Rate of PAI-1 Activity (%)
Protocol: 0.1 M HEPES, 0.1 M NaCl. 1 mM EDTA. 0.1 % Polyethylene glycol 8,000 (Hampton Research Corporation), 2 mM Dimethyldecylphoshine oxide [Apo-10] (Fluka Corporation)
Return type: number; implicit unit %.

// known answers, use as guide
Looking up CC(C)Oc1ccc(-c2ccc(OCC(=O)O)c(Oc3ccc(C(C)(C)C)cc3)c2)cc1 , I found its inhibition at 1 µM recorded as 63

Quick note, inhibition at 1 µM for CC(C)(C)c1cccc(Oc2cc(-c3cccc(OC(F)(F)F)c3)ccc2CCC(=O)O)c1 landed at 86

The compound CCCCCOc1cc(-c2ccc(OC(F)(F)F)cc2)cc(N(CCCCc2ccccc2)C(=O)C(=O)O)c1OCCCCC showed inhibition at 1 µM equal to 97

---
Summary for this compound, CC(C)(C)[C@H]1CC[C@H](N(C(=O)C(=O)O)c2ccc(-c3ccc(OC(F)(F)F)cc3)cc2)CC1 : inhibition at 1 µM is 67

The compound identified as CC(C)(C)c1ccc(N(Cc2ccc(-c3ccccc3)cc2)C(=O)C(=O)O)cc1 registered its inhibition at 1 µM at 7
